measurementKind: melting point

Look at each compound and report its melting point.
1. O=C(O)c1ccccc1SC1CCOC1=O (centres undefined)
2. CCOc1ccccc1C(=O)NCCN1CCC(O)(c2ccc(Cl)cc2)CC1

-- reply
1: 180 to 182 °C; 2: 171 to 173 °C

Look at each compound and report its melting point.
1. CCOC(=O)/C=C/c1ccc(C=Cc2nc(-c3ccco3)oc2C)cc1
2. COCc1nc2c(OCc3ccccc3)cccc2n1C

-- reply
123 to 124 °C
120 to 122 °C

###

I'd be grateful if you could share measured melting point for these entries.

Answered examples (7):
| molecule | melting point |
| --- | --- |
| COCc1ncccc1CN(CCn1cc(C)c2occc2c1=O)Cc1ccc2c(c1)NC(=O)C(C)(C)C(=O)N2CC(C)C | 207 to 210 °C |
| CCN(C)c1nc2cc(NC(=O)c3c(C(=O)N4CCC4)cnn3C)ccn2n1 | 229 to 232 °C |
| CCC(CC(=O)O)c1ccc(C(=O)OC)cc1 (stereo not drawn) | 165 to 166 °C |
| COc1ccc(C(=O)c2ccccn2)cc1 | 96 to 98 °C |
| O=C(Nc1cccc(Cl)c1)N1CCN(C(=O)c2ccc(Nc3ccnc4cc(C(F)(F)F)ccc34)cc2)CC1 | 266 to 268 °C |
| O=C(Nc1nccs1)c1nc(-c2ccc([N+](=O)[O-])cc2)[nH]c1-c1ccc(CO)cc1 | 249 to 252 °C |
| Fc1cccc(C2(N3CCC3)CCC3(CC2)NCCc2c3[nH]c3ccccc23)c1 (stereo not drawn) | 186 to 188 °C |

Form: molecule = `O=C(O)CCCCn1c(=O)c2cc(O)ccc2n(CCCCN2CCC(OC(c3ccccc3)c3ccccc3)CC2)c1=O` ; melting point = 234 to 236 °C

###

I'd be grateful if you could share measured melting point for these entries.

| molecule | melting point |
| --- | --- |
| Oc1cc(O)cc(Oc2nnn[nH]2)c1 | 191 to 193 °C |

Look at each molecule and report its melting point.
1. O=C(Nc1nnn[nH]1)c1cnc2sc3ccc(F)cc3n2c1=O
2. O=C(Nc1cccc2c1C(=O)c1c-2n[nH]c1-c1ccc(C(=O)N2CCN(c3ccccn3)CC2)s1)NN1CCOCC1
3. Cc1nc2nc(S(=O)(=O)Nc3c(Cl)cccc3Cl)nn2cc1Br
4. O=S(N=Cc1ccccc1)c1nccnc1Cl (configuration not stated)
5. ClCc1nc(Cl)c2ccccc2n1

-- reply
> 300 °C
201 to 202 °C
215 to 216 °C
113 to 114 °C
99 to 101 °C

Form: molecule = `O=C1c2c(Cl)cccc2-n2cnc(-c3noc(CCl)n3)c2[C@@H]2CCN12` ; melting point = 211 to 212 °C

###

measurementKind: melting point

| compound | measurementKind | recordedValue |
| --- | --- | --- |
| COc1cc(C)c2ccc(Br)cc2n1 | melting point | 58 to 60 °C |
| C[Si](C)(C)OC(CCl)(Cn1cncn1)c1ccc(F)cc1F (stereo not drawn) | melting point | 59 to 61 °C |

Could you now look at the following compound, please?
Form: compound = `COC(=O)c1c(-c2cc3ccccc3o2)ccc2ccccc12` ; melting point = 111 to 112 °C

###

measurementKind: melting point

Answered examples (3):
| compound | melting point |
| --- | --- |
| CCOC(=O)c1c(CC)ncnc1NCCc1ccc(CCO)cc1 | 68 to 71 °C |
| CCCCCCCCCCCCCCCc1cccc(OC)c1C1NC(=O)NC(C)=C1C(=O)OCC (stereo not given) | 91 to 93 °C |
| O=c1[nH]cc(-c2cccc(Cl)c2)c2ncccc12 | 252 °C |

Look at each compound and report its melting point.
1. N#Cc1ccc(Oc2ccc(CC(=O)O)cc2)cc1
2. Cc1cc(Cl)n2nc(S(=O)(=O)Nc3c(Cl)cccc3Cl)nc2c1
3. COc1ccc(N2CCOCC2)c2sc(-c3nc4c([nH]3)CCN(C(C)=O)C4)nc12
4. COc1cccc(-c2cc(C)cc3c2OC(CN)C3)c1OC (stereo not given)
5. CCOC(=O)/C=C1/CO[C@](C)([C@H]2CC[C@H]3[C@@H](O[Si](C)(C)C(C)(C)C)CCC[C@@]32C)C1
6. Cn1c(=O)cc(CCCl)c2cc(Cl)ccc21
7. OCc1cc(OCc2ccccc2)c(OCc2ccccc2)cn1

-- reply
1: 126 to 128 °C; 2: 257 to 258 °C; 3: 155 to 157 °C; 4: 97 to 99 °C; 5: 101 °C; 6: 120 to 122 °C; 7: 96.6 °C
